- Test target: T1, human MSLN-hFc protein (Acro, Cat. No. MSN-H5253) (human, UniProt Q13421 296-580)
- T1 construct: bought protein; also called human MSLN full-length protein; not shown: human Fc (hFc) of the bought protein
- T1 sequence (Q13421 other isoform, or with tags, fused parts or gaps limits assumed): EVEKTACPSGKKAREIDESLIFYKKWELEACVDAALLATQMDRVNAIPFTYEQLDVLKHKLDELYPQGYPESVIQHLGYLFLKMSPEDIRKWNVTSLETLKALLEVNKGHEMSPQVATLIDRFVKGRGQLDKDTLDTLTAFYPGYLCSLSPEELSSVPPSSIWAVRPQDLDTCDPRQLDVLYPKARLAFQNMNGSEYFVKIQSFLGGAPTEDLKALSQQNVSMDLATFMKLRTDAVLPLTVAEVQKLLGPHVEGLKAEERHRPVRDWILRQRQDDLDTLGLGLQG
- Method summary: ELISA, coated human MSLN-hFc, antibody 10 nM
Form field: OD450 nm (one value per entry).
Answer using only a numeral; do not append any unit.

Binder	OD450 nm
F2.23.12-H16 (scFv, not shown: small tags and cut ends, also called S009-F2.23.12 humanized VH4 + VL4) scFv: EVQLVQSGAEVKKPGASVKVSCKASGYTFTNYWMHWVRQAPGQGLEWMGNINPSQGGPYYNERFRSRVTMTVDKSTSTAYMELSSLRSEDTAVYYCARPYYGSSYGYFDYWGQGTTVTVSSGGGGSGGGGSGGGGSDIQMTQSPSSLSASVGDRVTITCKASQDINKYIAWYQHKPGKAPKLLIHYTSELQPGVPSRFSGSGSGRDYTFTISSLQPEDIATYYCLQYANPLRTFGGGTKVEIK	0.64
F2.23.12-H1 (scFv, not shown: small tags and cut ends, also called S009-F2.23.12 humanized VH1 + VL1) scFv: EVQLVQSGAEVKKPGASVKVSCKASGYTFTNYWMHWVRQAPGQGLEWMGNINPSNGGPYYNERFRSRVTMTVDKSTSTVYMELSSLRSEDTAVYYCARPYYGSSYGYFDYWGQGTTVTVSSGGGGSGGGGSGGGGSDIQMTQSPSSLSASVGDRVTITCKASQDINKYIAWYQQKPGKAPKLLIHYTSELQPGVPSRFSGSGSGTDFTFTISSLQPEDIATYYCLQYANPLRTFGGGTKVEIK	0.82

Pending binder:
Form: binder = F2.23.12-H13 (scFv, not shown: small tags and cut ends, also called S009-F2.23.12 humanized VH4 + VL1) scFv: EVQLVQSGAEVKKPGASVKVSCKASGYTFTNYWMHWVRQAPGQGLEWMGNINPSQGGPYYNERFRSRVTMTVDKSTSTAYMELSSLRSEDTAVYYCARPYYGSSYGYFDYWGQGTTVTVSSGGGGSGGGGSGGGGSDIQMTQSPSSLSASVGDRVTITCKASQDINKYIAWYQQKPGKAPKLLIHYTSELQPGVPSRFSGSGSGTDFTFTISSLQPEDIATYYCLQYANPLRTFGGGTKVEIK ; OD450 nm = 0.73
